Overview of recorded IC50 for various molecules
target: EGFR L858R/C797S (Homo sapiens, UniProt P00533, C797S/L858R); test: Biochemical EGFR kinase inhibition assay (Lance Ultra TR-FRET), double mutant L858R/C797S; conditions: ATP at Km; read-out: IC50 L858R/C797S (nM), Km ATP
Sequence (P00533 25-1210 C797S/L858R): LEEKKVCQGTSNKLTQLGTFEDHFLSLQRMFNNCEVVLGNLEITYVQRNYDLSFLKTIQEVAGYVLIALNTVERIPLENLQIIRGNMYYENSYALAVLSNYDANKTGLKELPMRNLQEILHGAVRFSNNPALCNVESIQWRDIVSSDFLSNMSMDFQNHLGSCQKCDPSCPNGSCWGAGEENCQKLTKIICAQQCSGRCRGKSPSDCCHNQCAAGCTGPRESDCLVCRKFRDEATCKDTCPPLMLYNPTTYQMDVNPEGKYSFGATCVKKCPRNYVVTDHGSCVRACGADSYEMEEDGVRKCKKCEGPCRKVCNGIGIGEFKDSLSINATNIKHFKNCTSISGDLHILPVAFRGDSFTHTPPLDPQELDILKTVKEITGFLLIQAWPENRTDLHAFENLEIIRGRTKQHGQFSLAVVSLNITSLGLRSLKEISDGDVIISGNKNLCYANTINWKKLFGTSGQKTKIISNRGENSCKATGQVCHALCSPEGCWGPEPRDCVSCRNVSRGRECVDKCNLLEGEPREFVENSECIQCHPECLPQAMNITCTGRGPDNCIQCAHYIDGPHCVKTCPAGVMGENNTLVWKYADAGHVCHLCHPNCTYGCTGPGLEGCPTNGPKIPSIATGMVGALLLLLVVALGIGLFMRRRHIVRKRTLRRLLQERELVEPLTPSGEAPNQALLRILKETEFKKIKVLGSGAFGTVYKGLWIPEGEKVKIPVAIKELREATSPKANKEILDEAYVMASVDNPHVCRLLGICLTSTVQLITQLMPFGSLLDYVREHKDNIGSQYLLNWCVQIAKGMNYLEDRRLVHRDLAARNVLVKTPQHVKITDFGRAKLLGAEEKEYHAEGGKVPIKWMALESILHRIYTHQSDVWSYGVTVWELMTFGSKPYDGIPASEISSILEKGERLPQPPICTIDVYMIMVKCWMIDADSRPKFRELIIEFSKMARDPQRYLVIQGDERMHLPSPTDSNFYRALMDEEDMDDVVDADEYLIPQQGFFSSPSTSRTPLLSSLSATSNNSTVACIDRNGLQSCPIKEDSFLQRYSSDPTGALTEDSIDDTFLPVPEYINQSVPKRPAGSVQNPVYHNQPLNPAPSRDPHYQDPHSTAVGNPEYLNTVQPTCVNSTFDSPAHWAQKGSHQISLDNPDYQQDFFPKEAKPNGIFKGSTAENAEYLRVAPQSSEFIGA
State the answer as a number, implicitly in nM.

Would you please look over these solved cases?
molecule	scale-unit	observed-result
CC1(CO)CCN(c2cc(Nc3ccnc(-c4cnn(S(=O)(=O)C5CC5)c4)n3)ncc2C#CC2CCOC2)CC1 (stereo not drawn)	nM	0.8
CC(C)(O)C1CCN(c2cc(Nc3ccnc(-c4cnn(S(=O)(=O)C5CC5)c4)n3)ncc2C#Cc2cnn(C(F)(F)F)c2)CC1	nM	47.6
CN(C)Cc1ccc(C#Cc2cnc(Nc3ccnc(-c4cnn(S(=O)(=O)C5CC5)c4)n3)cc2N2CCC(C)(CO)CC2)cn1	nM	0.5
CNCCC1CCN(c2cc(Nc3ccnc(-c4cnn(S(=O)(=O)C5CC5)c4)n3)ncc2C#Cc2cnn(C)c2)CC1	nM	1.8
CN1CCN(Cc2ccc(C#Cc3cnc(Nc4ccnc(-c5cnn(S(=O)(=O)C6CC6)c5)n4)cc3N3CCC(C)(CO)CC3)cc2)CC1	nM	0.6

Now for another entry.
Could you share what IC50 was measured for O=S(=O)(C1CC1)n1cc(-c2nccc(Nc3cc(NC4CCC(CO)CC4)c(C#Cc4cnn(C5CC5(F)F)c4)cn3)n2)cn1 (stereo not drawn) , tested on EGFR L858R/C797S (Homo sapiens, UniProt P00533, C797S/L858R)?
2.1

----------
target: EGFR Del19/T790M/C797S (Homo sapiens, UniProt P00533, C797S/DEL746-750/T790M); assay: Biochemical EGFR kinase inhibition assay (Lance Ultra TR-FRET), triple mutant del19/T790M/C797S; conditions: IC50 Del19/T790M/C797S (nM), 100 μM ATP
Sequence (P00533 with tags, fused parts or gaps DEL746-750/T790M/C797S): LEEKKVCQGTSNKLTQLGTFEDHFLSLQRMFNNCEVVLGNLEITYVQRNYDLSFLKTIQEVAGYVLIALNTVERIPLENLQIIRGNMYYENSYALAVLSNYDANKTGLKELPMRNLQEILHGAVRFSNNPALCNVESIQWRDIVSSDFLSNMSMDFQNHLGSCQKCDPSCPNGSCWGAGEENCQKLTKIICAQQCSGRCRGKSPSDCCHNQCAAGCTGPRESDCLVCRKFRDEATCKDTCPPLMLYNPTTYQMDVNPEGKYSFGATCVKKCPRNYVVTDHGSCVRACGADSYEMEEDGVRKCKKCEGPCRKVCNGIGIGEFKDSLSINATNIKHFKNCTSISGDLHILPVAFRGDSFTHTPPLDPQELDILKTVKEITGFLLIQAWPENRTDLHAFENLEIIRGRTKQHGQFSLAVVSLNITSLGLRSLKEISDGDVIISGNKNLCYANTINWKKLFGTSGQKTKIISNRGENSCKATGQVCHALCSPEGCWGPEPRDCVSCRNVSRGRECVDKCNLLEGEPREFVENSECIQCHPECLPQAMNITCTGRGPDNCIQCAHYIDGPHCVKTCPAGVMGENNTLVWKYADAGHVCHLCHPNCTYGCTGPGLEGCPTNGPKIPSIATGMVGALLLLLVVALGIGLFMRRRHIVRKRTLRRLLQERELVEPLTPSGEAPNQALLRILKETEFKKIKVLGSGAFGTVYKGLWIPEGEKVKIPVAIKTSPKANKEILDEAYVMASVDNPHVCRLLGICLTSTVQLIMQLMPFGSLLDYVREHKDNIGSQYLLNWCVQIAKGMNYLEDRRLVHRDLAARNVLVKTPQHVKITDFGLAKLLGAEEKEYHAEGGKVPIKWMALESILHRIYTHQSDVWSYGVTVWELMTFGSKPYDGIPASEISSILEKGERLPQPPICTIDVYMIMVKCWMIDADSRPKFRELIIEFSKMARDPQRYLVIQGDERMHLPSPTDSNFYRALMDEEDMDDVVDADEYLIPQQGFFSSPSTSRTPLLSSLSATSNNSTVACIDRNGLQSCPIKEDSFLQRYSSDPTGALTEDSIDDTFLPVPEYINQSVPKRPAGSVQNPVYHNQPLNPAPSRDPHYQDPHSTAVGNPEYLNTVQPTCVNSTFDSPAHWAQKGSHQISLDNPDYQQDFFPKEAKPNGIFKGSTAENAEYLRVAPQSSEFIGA
Overview of recorded IC50 for various molecules
State the answer as a number, implicitly in nM.

Would you please look over these solved cases?
molecule	scale-unit	observed-result
O=S(=O)(C1CC1)n1cc(-c2nccc(Nc3cc(N4CCC(C5(O)CC5)CC4)c(C#Cc4cnn(C(F)(F)F)c4)cn3)n2)cn1 [Example 330]	nM	5.2
Cn1cc(C#Cc2cnc(Nc3ccnc(-c4cnn(S(=O)(=O)C5CC5)c4)n3)cc2N2CCC(NCC(F)(F)F)CC2)cn1 [Example 135]	nM	2.6
Cn1cc(C#Cc2cnc(Nc3ccnc(-c4cnn(S(=O)(=O)C5CC5)c4)n3)cc2N[C@H]2CCC[C@@H](O)C2)cn1 [Example 75]	nM	1.6
O=S(=O)(C1CC1)n1cc(-c2nccc(Nc3cc(NC4CCC(O)CC4)c(C#CC4CCOC4C(F)(F)F)cn3)n2)cn1 (stereo not shown) [Example 420]	nM	1.3
O=S1(=O)CCC(C#Cc2cnc(Nc3ccnc(-c4cnn(S(=O)(=O)C5CC5)c4)n3)cc2NC2CCC(CO)CC2)C1 (stereo not shown) [Example 428]	nM	0.5
CC1(O)CCN(c2cc(Nc3ccnc(-c4cnn(S(=O)(=O)C5CC5)c4)n3)ncc2C#CC2CCS(=O)(=O)C2)CC1 (stereo not shown) [Example 429]	nM	0.5
Cn1cc(C#Cc2cnc(Nc3ccnc(-c4cnn(S(=O)(=O)C5CC5)c4)n3)cc2N2CCC(N3CC(F)(F)C3)CC2)cn1 [Example 128]	nM	7.1
O=S(=O)(C1CC1)n1cc(-c2nccc(Nc3cc(N[C@H]4CC[C@@H](O)CC4)c(C#Cc4ccsc4)cn3)n2)cn1 [Example 217]	nM	2.6
O=S(=O)(C1CC1)N1CCC(C#Cc2cnc(Nc3ccnc(-c4cnn(S(=O)(=O)C5CC5)c4)n3)cc2NC[C@H]2CC[C@H](CO)CC2)CC1 [Example 392]	nM	22
CC1(O)CCC(CNc2cc(Nc3ccnc(-c4cnn(S(=O)(=O)C5CC5)c4)n3)ncc2C#CC2CCCO2)CC1 (stereo not shown) [Example 377]	nM	4.1

Could you tell me which IC50 is on file for CC(=O)N1CCC(n2cc(C#Cc3cnc(Nc4ccnc(-c5cnn(S(=O)(=O)C6CC6)c5)n4)cc3N3CCCC(CO)C3)cn2)CC1 (stereo not shown) [Example 115] ?
1.2

Could you tell me which IC50 is on file for CC1(CO)CCN(c2cc(Nc3ccnc(-c4cnn(S(=O)(=O)C5CC5)c4)n3)ncc2C#CC2CCS(=O)(=O)C2)CC1 (stereo not shown) [Example 437] ?
0.1

Could you tell me which IC50 is on file for C[C@]1(O)CCCN(c2cc(Nc3ccnc(-c4cnn(S(=O)(=O)C5CC5)c4)n3)ncc2C#Cc2cnn(CCF)c2)C1 [Example 447] ?
0.4

----------
Overview of recorded log10 IC50 for various compounds
molecular target: EGFR Del19/T790M/C797S (Homo sapiens, UniProt P00533, C797S/DEL746-750/T790M); assay: Biochemical EGFR kinase inhibition assay (Lance Ultra TR-FRET), triple mutant del19/T790M/C797S; details: IC50 Del19/T790M/C797S (nM), 100 μM ATP
The common logarithm of IC50 in nM is what is listed.

Could you share what log10 IC50 was measured for O=S(=O)(C1CC1)n1cc(-c2nccc(Nc3cc(NC4CCC(CO)CC4)c(C#CC4(F)CCOC4)cn3)n2)cn1 (stereo not shown) , tested on EGFR Del19/T790M/C797S (Homo sapiens, UniProt P00533, C797S/DEL746-750/T790M)?
-0.52

----------
target: EGFR L858R/T790M/C797S (Homo sapiens, UniProt P00533, C797S/L858R/T790M); experiment: Biochemical EGFR kinase inhibition assay (Lance Ultra TR-FRET), triple mutant L858R/T790M/C797S; conditions: ATP at Km; read-out: IC50 L858R/T790M/C797S (nM), Km ATP
Sequence (P00533 25-1210 T790M/C797S/L858R): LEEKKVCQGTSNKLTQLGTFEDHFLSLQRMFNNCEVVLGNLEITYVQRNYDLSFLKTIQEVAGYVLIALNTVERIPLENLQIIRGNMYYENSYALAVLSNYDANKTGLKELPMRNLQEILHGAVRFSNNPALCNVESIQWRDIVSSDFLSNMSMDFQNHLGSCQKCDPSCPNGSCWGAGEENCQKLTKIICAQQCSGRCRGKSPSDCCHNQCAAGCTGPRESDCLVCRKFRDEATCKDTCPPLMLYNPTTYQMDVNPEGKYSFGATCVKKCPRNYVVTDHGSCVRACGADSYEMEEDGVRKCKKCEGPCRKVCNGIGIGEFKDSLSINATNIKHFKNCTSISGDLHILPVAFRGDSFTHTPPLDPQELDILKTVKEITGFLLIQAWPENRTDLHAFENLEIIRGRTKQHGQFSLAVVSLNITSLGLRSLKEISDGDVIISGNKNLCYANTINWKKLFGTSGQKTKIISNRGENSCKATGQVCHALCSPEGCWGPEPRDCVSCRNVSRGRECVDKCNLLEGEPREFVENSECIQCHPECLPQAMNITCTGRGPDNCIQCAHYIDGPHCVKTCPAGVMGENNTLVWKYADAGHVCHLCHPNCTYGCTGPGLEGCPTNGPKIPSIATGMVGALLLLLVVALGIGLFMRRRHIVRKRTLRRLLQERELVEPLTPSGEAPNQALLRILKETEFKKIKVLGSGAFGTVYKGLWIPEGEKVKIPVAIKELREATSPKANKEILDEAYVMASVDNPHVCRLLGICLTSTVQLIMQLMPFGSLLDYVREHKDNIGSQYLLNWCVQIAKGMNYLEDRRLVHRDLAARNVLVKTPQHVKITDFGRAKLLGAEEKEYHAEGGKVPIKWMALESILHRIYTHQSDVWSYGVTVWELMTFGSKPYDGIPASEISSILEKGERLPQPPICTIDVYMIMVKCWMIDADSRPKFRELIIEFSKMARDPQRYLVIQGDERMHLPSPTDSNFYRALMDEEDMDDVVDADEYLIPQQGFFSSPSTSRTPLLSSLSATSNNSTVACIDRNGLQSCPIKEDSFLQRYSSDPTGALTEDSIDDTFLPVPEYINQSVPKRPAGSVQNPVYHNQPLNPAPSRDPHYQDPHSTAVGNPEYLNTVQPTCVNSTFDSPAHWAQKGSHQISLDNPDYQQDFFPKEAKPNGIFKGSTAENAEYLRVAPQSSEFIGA
value-type: IC50 (nM)
State the answer as a number, implicitly in nM.

Would you please look over these solved cases?
smiles-data	experimental-target	scale-unit	IC50
C[C@]1(O)CC[C@@H](Nc2cc(Nc3ccnc(-c4cnn(S(=O)(=O)C5CC5)c4)n3)ncc2C#Cc2ccc(CN3CCOCC3)cc2)CC1	EGFR L858R/T790M/C797S (Homo sapiens, UniProt P00533, C797S/L858R/T790M)	nM	2.5
O=S(=O)(C1CC1)n1cc(-c2nccc(Nc3cc(N[C@H]4CC[C@@H](O)CC4)c(C#Cc4ccc(CN5CCOCC5)cn4)cn3)n2)cn1	EGFR L858R/T790M/C797S (Homo sapiens, UniProt P00533, C797S/L858R/T790M)	nM	0.2

Now for another entry.
Could you tell me which IC50 is on file for `CC1(CO)CCN(c2cc(Nc3ccnc(-c4cnn(S(=O)(=O)C5CC5)c4)n3)ncc2C#Cc2nc(C(F)(F)F)cs2)CC1` ?
3.6

----------
molecular target: EGFR Del19/C797S (Homo sapiens, UniProt P00533, C797S/DEL746-750); test: Biochemical EGFR kinase inhibition assay (Lance Ultra TR-FRET), double mutant del19/C797S; settings: IC50 Del19/C797S (nM), 100 μM ATP
Sequence (P00533 with tags, fused parts or gaps DEL746-750/C797S): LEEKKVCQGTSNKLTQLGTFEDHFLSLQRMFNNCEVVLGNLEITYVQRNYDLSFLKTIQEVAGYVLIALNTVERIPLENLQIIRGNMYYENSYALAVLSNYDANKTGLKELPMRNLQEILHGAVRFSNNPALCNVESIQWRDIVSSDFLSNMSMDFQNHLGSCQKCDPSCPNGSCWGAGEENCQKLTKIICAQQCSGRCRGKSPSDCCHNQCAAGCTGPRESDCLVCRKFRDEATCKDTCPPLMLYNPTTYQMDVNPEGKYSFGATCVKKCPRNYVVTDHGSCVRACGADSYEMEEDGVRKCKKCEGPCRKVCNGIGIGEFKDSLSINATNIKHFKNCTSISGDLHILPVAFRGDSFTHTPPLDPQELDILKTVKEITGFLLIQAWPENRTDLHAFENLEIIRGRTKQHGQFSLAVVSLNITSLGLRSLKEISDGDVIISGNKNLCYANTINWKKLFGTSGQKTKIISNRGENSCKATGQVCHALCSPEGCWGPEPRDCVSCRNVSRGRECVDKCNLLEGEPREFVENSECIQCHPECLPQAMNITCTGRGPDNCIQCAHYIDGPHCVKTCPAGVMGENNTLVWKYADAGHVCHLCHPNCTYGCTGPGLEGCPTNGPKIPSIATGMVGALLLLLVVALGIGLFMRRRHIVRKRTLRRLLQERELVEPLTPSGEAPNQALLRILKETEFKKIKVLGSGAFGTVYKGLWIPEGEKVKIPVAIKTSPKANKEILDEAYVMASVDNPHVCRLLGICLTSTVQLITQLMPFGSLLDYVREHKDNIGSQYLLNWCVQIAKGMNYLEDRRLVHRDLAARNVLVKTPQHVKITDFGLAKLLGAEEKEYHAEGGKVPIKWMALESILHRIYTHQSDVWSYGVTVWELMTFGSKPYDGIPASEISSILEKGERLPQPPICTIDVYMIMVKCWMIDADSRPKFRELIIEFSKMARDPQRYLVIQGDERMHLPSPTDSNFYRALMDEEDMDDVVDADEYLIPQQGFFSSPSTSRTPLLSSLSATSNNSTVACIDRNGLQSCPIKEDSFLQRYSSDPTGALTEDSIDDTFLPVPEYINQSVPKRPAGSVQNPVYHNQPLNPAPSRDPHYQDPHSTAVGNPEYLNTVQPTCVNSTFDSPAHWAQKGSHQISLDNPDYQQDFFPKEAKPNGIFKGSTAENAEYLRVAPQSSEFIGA
value-type: log10 of IC50 (log10 of the value in nM)
The common logarithm of IC50 in nM is what is listed.

Would you please look over these solved cases?
molecule	log10 of IC50
O=S(=O)(C1CC1)n1cc(-c2nccc(Nc3cc(N4CCC(NCCO)CC4)c(C#Cc4cnn(C5CCOCC5)c4)cn3)n2)cn1	1.07
CC1(CO)CCN(c2cc(Nc3ccnc(-c4cnn(S(=O)(=O)C5CC5)c4)n3)ncc2C#CCCN2CCOCC2)CC1	0.04
O=S(=O)(C1CC1)n1cc(-c2nccc(Nc3cc(N[C@H]4CC[C@@H](O)CC4)c(C#Cc4cnn(CCF)c4)cn3)n2)cn1	0.51
O=S(=O)(C1CC1)n1cc(-c2nccc(Nc3cc(N[C@H]4CC[C@@H](CO)CC4)c(C#Cc4cnn(C(F)F)c4)cn3)n2)cn1	0.45

Could you share what log10 of IC50 was measured for `O=S(=O)(C1CC1)n1cc(-c2nccc(Nc3cc(N[C@H]4CC[C@@H](NCCF)CC4)c(C#Cc4cnn(CC(F)(F)F)c4)cn3)n2)cn1` , tested on EGFR Del19/C797S (Homo sapiens, UniProt P00533, C797S/DEL746-750)?
1.44

Could you share what log10 of IC50 was measured for `O=S(=O)(C1CC1)n1cc(-c2nccc(Nc3cc(NC[C@H]4CC[C@@H](O)C4)c(C#Cc4cnn(C(F)F)c4)cn3)n2)cn1` , tested on EGFR Del19/C797S (Homo sapiens, UniProt P00533, C797S/DEL746-750)?
0.66

Could you share what log10 of IC50 was measured for `Cn1ncc(C#Cc2cnc(Nc3ccnc(-c4cnn(S(=O)(=O)C5CC5)c4)n3)cc2N[C@H]2CC[C@@H](O)CC2)c1C1CC1` , tested on EGFR Del19/C797S (Homo sapiens, UniProt P00533, C797S/DEL746-750)?
1.19

Could you share what log10 of IC50 was measured for O=S(=O)(C1CC1)n1cc(-c2nccc(Nc3cc(NC[C@H]4CC[C@H](CO)CC4)c(C#CC4CC5CCC4O5)cn3)n2)cn1 (stereo partly shown) , tested on EGFR Del19/C797S (Homo sapiens, UniProt P00533, C797S/DEL746-750)?
2.08

Could you share what log10 of IC50 was measured for `O=S(=O)(C1CC1)n1cc(-c2nccc(Nc3cc(N[C@H]4CC[C@@H](O)CC4)c(C#Cc4ccc(CN5CCOCC5)cc4)cn3)n2)cn1` , tested on EGFR Del19/C797S (Homo sapiens, UniProt P00533, C797S/DEL746-750)?
1.03
